Test system: MDA-MB-435 melanoma
ASSAY_PROTOCOL: NCI-60 one-dose screen, 48 h (100 = growth as untreated, 0 = no growth, -100 = all killed)
PARTICULARS: 10 µM unless noted
Compounds without any hit were thinned out: in the full panel of roughly 83,000, 20% have a hit.
OBSERVATION_TYPE: growth (%)

1. COc1ccc(-c2nc(SCC(C)C)nc(Nc3ccc(C)cc3)c2C#N)cc1: 86.7
2. COc1cccc(NC(=O)NCCNc2nccc(-c3c(-c4ccc(F)cc4)nc4sccn34)n2)c1: 76.9
3. C[C@@H](c1ccc2c(c1)[nH]c1ccc(Cl)cc12)c1nc2ccccc2[nH]1: 103
4. CCCCCCNC(=O)Oc1ccc(/C(=C(/C)Cc2ccc(OC)cc2)c2ccc(OCCN3CCCCC3)cc2)cc1: 91.5
5. CCCOC(=O)c1c(C)n(C)c2scc[n+]12: 90.9

====

Tested on: SF-539 CNS
ASSAY_PROTOCOL: NCI-60 one-dose screen, 48 h (100 = growth as untreated, 0 = no growth, -100 = all killed)
PARTICULARS: 10 µM unless noted
About 83,000 compounds went through this panel and 20% of them were active in at least one assay; those are over-represented in the sample as a whole.
growth vs 90%: at or above is MET, below is NOT MET.

1. Cc1cc(CSc2ccc(Cl)cc2)ccc1N: NOT MET
2. C=CCNC(=S)NNc1ccc([N+](=O)[O-])cn1: MET
3. C=CCN(C)C: MET
4. CC(=O)NNC(=O)c1sc(NC(C)=O)nc1C: MET
5. COc1ccc(C2=C/C(=C\c3ccc(Cl)cc3)C(=O)NN2C(=S)NN)cc1: MET
6. O=C(Nc1ccc(Cl)cn1)C1(c2ccccc2)CCCCC1: MET
7. Cc1ccc(NC(=O)CCl)cc1Cl: MET
8. C=CN(C)S(C)(=O)=O: NOT MET
9. CCNc1nnc(COc2ccc(CNC(=O)CCCC/C=C/C(C)C)cc2OC)o1: MET
10. COc1ccc(NC(=O)/C=C(C)/C=C/C=C(C)/C=C/C2=C(C)CCCC2(C)C)cc1: NOT MET
11. C/C=C(/C)C(=O)OC1C=C(CO)C(=O)C(OC(=O)C(C)(O)C(C)Cl)C1C(C)C (stereo not drawn): NOT MET
12. c1ccc(Nc2ccccn2)cc1: MET
13. N/C(=N\O)c1ccncc1: MET
14. CCCCCCCCCCCCCCCCCCOP(=O)(O)O: MET
15. N#Cc1c2ncccc2c2nnc3cc(Cl)c(Cl)cc3n12: MET
16. COc1cc2ncnc(-n3ncc4cc(NC(=O)Nc5ccccc5)ccc43)c2cc1OC: NOT MET
17. Cc1ccc(C(=O)Nc2ccc(CN3CCN(C)CC3)c(C(F)(F)F)c2)cc1C#Cc1cnc(N)c2ccc(F)cc12: NOT MET
18. O=S(=O)(O)CCI: MET
19. Cc1ccc(S(=O)(=O)Nc2cccc(Cn3c(=O)[nH]c4ccc(Oc5ncccn5)cc4c3=O)c2)cc1: NOT MET
20. COc1ccc2c(N)ncc(C#Cc3cc(C(=O)Nc4ccc(CN5CCN(C)CC5)c(C(F)(F)F)c4)cnc3C)c2c1: NOT MET
21. CCC(CCCN1C(=O)c2ccccc2C1=O)Nc1cc(OC)cc2c(C)ccnc12 (stereo not drawn): NOT MET
22. CCCCCCCCCCN1CC2CCCCC2C1 (stereo not drawn): NOT MET
23. COc1ccc(C(O)(c2ccccc2)C(C(=O)O)c2ccccc2)cc1 (stereo not drawn): MET
24. CCCC[N+](C)(N)CCCC: MET
25. COc1ccc(Oc2[nH]n(C3=Nc4ccccc4Sc4ccccc43)c(=O)c2C#N)cc1: MET
26. O=C(Cc1ccccc1[N+](=O)[O-])c1ccc2c(c1)OCO2: MET
27. O=C(Nc1ccc(-n2cc(-c3ccncc3)c(-c3ccc(Cl)c(O)c3)n2)cc1)Nc1cc(C(F)(F)F)cc(C(F)(F)F)c1: NOT MET
28. CCC(CCCN1C(=O)c2ccccc2C1=O)Nc1cc(OC)cc2cccnc12 (stereo not drawn): MET
29. Cc1ccc(C(=O)Nc2ccc(CN3CCN(C)CC3)c(C(F)(F)F)c2)cc1C#Cc1cncc2ncccc12: NOT MET
30. O=C(NC(=S)NNC(=S)NNc1ccccc1)c1ccccc1: NOT MET
31. C/C=C/C/C=C/[C@H](C)C[C@H](O)[C@@H]1C[C@@H]2O[C@H]2/C=C/[C@H](O)[C@@H](O)/C=C/C[C@H](C)CC(=O)O1: NOT MET
32. COc1ccc(C2=NN(C(=O)c3cc(-c4ccc(C)cc4)nc4ccccc34)C(c3cc(-c4ccccc4)nn3-c3ccccc3)C2)cc1 (stereo not drawn): MET
33. CC1(C)Oc2cc3oc(=O)ccc3cc2C[C@@H]1OCCOS(=O)(=O)c1ccc(C#N)cc1: MET
34. COc1ccc(CN2C(=O)/C(=C\C(=O)c3ccc(OCCN4CCCCC4)cc3)c3ccccc32)cc1: NOT MET
35. COc1ccc(/C=C(/C(=O)N2CCN(c3ccc(C)cc3)CC2)c2cc(OC)c(OC)c(OC)c2)cc1N: NOT MET
36. Brc1ccc(-c2nc3ccccc3s2)cc1: MET
37. Cc1nc2ccccc2c(=O)n1-c1cccc(OCc2cn(-c3cccc(O)c3)nn2)c1: MET
38. CC(=O)Nc1ccc(S(=O)(=O)Cl)cc1: MET
39. C/C(=N\Nc1ccc(Cl)cn1)c1ccccn1: NOT MET
40. C[C@@H](c1ccc2c(c1)[nH]c1ccc(Cl)cc12)c1nc2ccc(Cl)cc2[nH]1: NOT MET
41. O=C(Nc1ccc(-n2cc(-c3ccncc3)c(-c3ccc(Cl)c(O)c3)n2)cc1)c1cc(C(F)(F)F)cc(C(F)(F)F)c1: NOT MET

====

System: OVCAR-8 ovarian
ASSAY_PROTOCOL: NCI-60 one-dose screen, 48 h (100 = growth as untreated, 0 = no growth, -100 = all killed)
PARTICULARS: 10 µM unless noted
About 83,000 compounds went through this panel and 20% of them were active in at least one assay; those are over-represented in the sample as a whole. Activity calls are given as the source filed them. How the source made its calls: active means growth percent below 10; inactive means the rest.
Overview of recorded growth for various compounds
OBSERVATION_TYPE: growth

1. CCCCCCCCCCCCCCCCNC(=S)N/N=C/c1ccc(O)cc1O: 56.2% (inactive)
2. NC(N)=Nc1ccc(/C=C2\C=Cc3ccccc32)cc1: 71.7% (inactive)
3. COc1ccc(/C=C2\SC(=O)N(Cc3cc(=O)oc4ccc(OC)cc34)C2=O)cc1: 95.4% (inactive)
4. CCS(=O)(=O)OCCO[C@H]1Cc2cc3ccc(=O)oc3cc2OC1(C)C: 101% (inactive)
5. COc1ccc(Nc2c3ccccc3nc3ccccc23)cc1: 14.7% (inactive)
6. COC(=O)C1CC(=O)N(C(=O)Nc2ccc(Cl)cc2Cl)C1 (stereo unspecified): 99.1% (inactive)

====

Test system: RXF 393 renal
ASSAY_PROTOCOL: NCI-60 one-dose screen, 48 h (100 = growth as untreated, 0 = no growth, -100 = all killed)
PARTICULARS: 10 µM unless noted
Compounds without any hit were thinned out: in the full panel of roughly 83,000, 20% have a hit.
OBSERVATION_TYPE: growth (%)

1) C/C(=C\c1ccc2ccccc2c1)[N+](=O)[O-]: -86.1
2) Cc1ccccc1-n1c(C)nc2cc(NC(=O)c3ccc(Cl)cc3)ccc2c1=O: 77.7
3) CCOC(=O)c1c(C)oc2ncnc(Nc3ccc(NC(=O)Nc4ccc(CC)cc4)cc3)c12: 98.3
4) COc1ccc(-c2cn3ccnc3c(-c3ccc4ncn(C5CCCCC5)c4c3)n2)cc1: -8.48
5) CC(=O)/C(=C/c1ccc(-c2ccccc2)cc1)C(=O)c1ccccc1: 90.6

====

Test system: PC-3 prostate
ASSAY_PROTOCOL: NCI-60 one-dose screen, 48 h (100 = growth as untreated, 0 = no growth, -100 = all killed)
PARTICULARS: 10 µM unless noted
Compounds without any hit were thinned out: in the full panel of roughly 83,000, 20% have a hit. Activity calls are given as the source filed them. Rule for the calls: active = growth percent below 10; inactive = the rest.
OBSERVATION_TYPE: growth

1. CCCC(=O)Nc1ccccc1C(=O)O: 103% (inactive)
2. CCCCCCCCCCCCCCCCNC(=S)N/N=C/c1ccc(OC)cc1: 88.5% (inactive)
3. CCCCCCC(C(=O)OCC)(C(=O)OCC)C1CCCCCC1: 102% (inactive)
4. CC(C)OC(=O)c1ccc2n1CCCc1cnc(Nc3ccccc3)nc1-2: 75.7% (inactive)
5. N#CCc1ncc(-c2ccc(C(F)(F)F)cc2)c(NC2CCCCCC2)n1: -3.13% [100 µM] (active)
6. CCS(=O)(=O)N[C@@H]1O[C@H](COC(C)=O)C(OC(C)=O)[C@H](OC(C)=O)C1OC(C)=O (stereo partly specified): 102% (inactive)
